Provide the recorded activity change, negative = cytotoxicity for the entries that follow.
EXPERIMENT DESCRIPTION: Cell Viability - N2a (AID 540);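 note: cells exposed to compound for 40 h at 37 °C; plate controls were DMSO alone for no effect and tamoxifen control for full effect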
TEST CONTEXT: N2a mouse neuroblastoma cell viability; at 92.2 µM (top of the series)
Results filed as inconclusive are left out.
Kindly provide the numeric value in % only, without the unit symbol.

// query // lookup activity change, negative = cytotoxicity for Cc1ccc(C(C)(C)C)cc1
// result -7.24

// query Would you kindly share the measured activity change, negative = cytotoxicity for O=C(Cl)c1ccccc1[N+](=O)[O-] ?
// result 0.882

// query Can you look up the measured activity change, negative = cytotoxicity of O=Nc1ccc(NO)cc1 for me?
// result 16.3

// query Given the compound C(=C/c1ccccc1)/c1ccccc1 , what is its reported activity change, negative = cytotoxicity?
// result -0.717

// query // lookup activity change, negative = cytotoxicity for N#Cc1ccccc1
// result 6.76

// query I'd like to know its activity change, negative = cytotoxicity. The compound in question is CCCOCC(C)OCC(C)O (stereo unspecified)
// result -9.53

// query Return reported activity change, negative = cytotoxicity; argument: CN(C)CCCCl
// result -0.582

// query Recorded activity change, negative = cytotoxicity of NC(N)=S , please.
// result 7.78

// query Recorded activity change, negative = cytotoxicity for CCCCCCCCN , please?
// result 7.89

// query Would you mind telling me what activity change, negative = cytotoxicity value was observed for c1ccc2n[nH]nc2c1 ?
// result -2.18

// query What value of activity change, negative = cytotoxicity has been reported for the following compound? Cc1ccc(C)cc1
// result -13.5

// query Quick one: activity change, negative = cytotoxicity of O=[N+]([O-])c1cccc(Cl)c1 ?
// result -8.23

// query Would you mind telling me what activity change, negative = cytotoxicity value was observed for C=Cc1ccccn1 ?
// result 5.72

// query Returns the measured activity change, negative = cytotoxicity for the input compound. Input: COC(=O)c1ccccc1
// result -10.2

// query Please look up its activity change, negative = cytotoxicity: Cc1ccccc1Br
// result -5.14

// query Which activity change, negative = cytotoxicity is reported for this compound? FB(F)F
// result 5.96
